Cited source: ChEMBL document CHEMBL4699464

# Tested on: Gaeumannomyces graminis
# experimental-protocol: Antimicrobial activity against Gaeumannomyces graminis QDAU-21 by serial dilution technique
# Assay type: functional
measurement-kind: MIC

Worked cases, answers included:
>>> meas_value("C=C[C@]1(C)CCC2=C(CC[C@]3(O)[C@@](C)(C(=O)O)CCC[C@]23C)[C@H]1O")
"> 32 µg/mL"
>>> meas_value("C=C[C@H]1[C@@H]2CC[C@@]3(O)[C@@](C)(C(=O)O)[C@H](O)CC[C@]3(C)[C@H]2CC[C@@]1(O)CCl")
"> 32 µg/mL"
>>> meas_value("C=C[C@]1(C)CC[C@@]2(O)[C@](O)(CC[C@]3(O)[C@]2(C)CCC[C@]3(C)C(=O)O)C1")
"> 32 µg/mL"
>>> meas_value("C=C[C@]1(C)CCC2=C(CC[C@@]3(O)[C@@](C)(C(=O)O)CCC[C@]23C)[C@H]1OC")
"> 32 µg/mL"
>>> meas_value("C=C[C@]1(C)CCC2=C(CC[C@@]3(O)[C@@](C)(C(=O)O)[C@H](O)CC[C@]23C)[C@H]1O")
"> 32 µg/mL"

Turning now to a further compound:
Value wanted: MIC (Gaeumannomyces graminis) of entry C[C@@H]1[C@H](O)[C@@H](C)/C=C/C=C/C=C/C=C/C=C/C=C/C=C/[C@H](O[C@@H]2O[C@H](C)[C@@H](O)[C@H](N)[C@@H]2O)C[C@@H]2O[C@](O)(C[C@@H](O)C[C@@H](O)[C@H](O)CC[C@@H](O)C[C@@H](O)CC(=O)O[C@H]1C)C[C@H](O)[C@H]2C(=O)O [AMPHOTERICIN B]
1 µg/mL

---

# System: Gaeumannomyces graminis
# experimental-protocol: Antimicrobial activity against Gaeumannomyces graminis QDAU-21 by serial dilution technique
# Assay type: functional
measurement-kind: MIC

>>> meas_value("C=C[C@]1(C)CCC2=C(CC[C@@]3(O)[C@@](C)(C(=O)O)[C@H](O)CC[C@]23C)[C@@H]1OC")
"> 32 mg/L"

Value wanted: MIC (Gaeumannomyces graminis) of entry C=C1CC[C@]2(O)[C@](C)(CCC[C@]2(C)C(=O)O)[C@]1(O)CC/C(C)=C/CO
> 32 mg/L

Value wanted: MIC (Gaeumannomyces graminis) of entry C[C@]1(O)C[C@]23CC[C@H]1C[C@@H]2[C@@]1(C)CCC[C@](C)(C(=O)O)[C@]1(O)CC3
4 mg/L
